Reference source for all entries: PubChem BioAssay (EPA / NIEHS)

Target: Oxysterols receptor LXR-alpha (Homo sapiens)
Test: ATG_LXRa_TRANS: Attagene TRANS-FACTORIAL HepG2 Assay for human Liver X Receptor alpha (LXRa) (AID 2282980)
Details: HepG2 Attagene TRANS reporter, LXRa transactivation
Inconclusive results are not listed. Activity calls are given as the source filed them. The calls were made as follows: active = hit-call score of the fitted dose curve at least 0.9, where 1 is the maximum; inconclusive = response in the unintended direction; inactive = score below 0.9.
Outcome codes: active, inactive

- molecule: "Cc1ccc(O)cn1"
  discrete label: "active"
- molecule: "Cc1ccc2c(c1)OCC(=O)CO2"
  discrete label: "inactive"
- molecule: "CCCCCCCCCCCCC[N+](C)(C)Cc1ccccc1"
  discrete label: "inactive"
- molecule: "CCN(CC)c1ccc(C=O)c(O)c1"
  discrete label: "inactive"
- molecule: "OCCCC(F)(F)C(F)(F)C(F)(F)C(F)(F)C(F)(F)C(F)(F)C(F)(F)C(F)(F)F"
  discrete label: "inactive"
- molecule: "C[Si](Cl)(Cl)CCC(F)(F)C(F)(F)C(F)(F)C(F)(F)C(F)(F)C(F)(F)F"
  discrete label: "inactive"
- molecule: "O=C(O)CCC(F)(F)C(F)(F)C(F)(F)C(F)(F)C(F)(F)C(F)(F)C(F)(F)F"
  discrete label: "inactive"
- molecule: "C[C@]12CC[C@H]3C(=CCc4cc(O)ccc43)[C@@H]1CCC2=O"
  discrete label: "inactive"
- molecule: "CCCCOC(=O)C(C)O (stereo unspecified)"
  discrete label: "inactive"
- molecule: "CCC(Cc1c(I)cc(I)c(N)c1I)C(=O)O (stereo unspecified)"
  discrete label: "inactive"
- molecule: "COCCC(=O)OC"
  discrete label: "inactive"
- molecule: "OCC(O)CC(F)(F)C(F)(F)C(F)(F)C(F)(F)C(F)(F)C(F)(F)C(F)(F)C(F)(F)F (stereo unspecified)"
  discrete label: "inactive"
- molecule: "COCCOCCC[Si](C)(O[Si](C)(C)C)O[Si](C)(C)C"
  discrete label: "inactive"
- molecule: "CCCCCCCCCCCCCCCCC"
  discrete label: "inactive"
- molecule: "CC1=CC2C3C=CC(C3)C2C1C (stereo unspecified)"
  discrete label: "inactive"
- molecule: "O=C1c2ccccc2C(=O)c2c(Cl)cccc21"
  discrete label: "inactive"
- molecule: "O=C=NCc1cccc(CN=C=O)c1"
  discrete label: "inactive"
- molecule: "CCOC(=O)CCC(C)=O"
  discrete label: "inactive"
- molecule: "O=S(=O)(OCC(F)(F)F)C(F)(F)C(F)(F)C(F)(F)C(F)(F)F"
  discrete label: "inactive"
- molecule: "CCN(CC)c1ccc(N=Nc2ccccc2)cc1"
  discrete label: "inactive"
- molecule: "CC(O)C#CC(C)O (stereo unspecified)"
  discrete label: "inactive"

---

Assay: CCTE_Padilla_ZF_Score.Spine: CCTE's 144 Hour Post-fertilization zebrafish Assay Score for Spine Malformation, Padilla Lab (AID 2284407)
Calls of active or inactive are those of the source. The calls were made as follows: active = hit-call score of the fitted dose curve at least 0.9, where 1 is the maximum; inactive = score below 0.9.
Outcome codes: y for active, n for inactive

- given smiles: "CO[Si](C)(CCC(F)(F)C(F)(F)C(F)(F)C(F)(F)C(F)(F)C(F)(F)F)OC"
  discrete label: "n"
- given smiles: "O=S(=O)(Cl)C(F)(F)C(F)(F)C(F)(F)C(F)(F)C(F)(F)C(F)(F)C(F)(F)C(F)(F)F"
  discrete label: "y"
- given smiles: "O=C(Cl)C(F)(F)C(F)(F)C(F)(F)C(F)(F)C(F)(F)C(F)(F)C(F)(F)F"
  discrete label: "n"
- given smiles: "O=S(=O)(O)CCC(F)(F)C(F)(F)C(F)(F)C(F)(F)F"
  discrete label: "n"
- given smiles: "FC(F)(F)C(F)(F)C(F)(F)C(F)(F)C(F)(F)C(F)(F)C(F)(F)CCI"
  discrete label: "n"
- given smiles: "OC(O)C(F)(F)C(F)(F)F"
  discrete label: "n"
- given smiles: "NC(O)(C(F)(F)F)C(F)(F)F"
  discrete label: "n"
- given smiles: "C=CC(=O)OCC(F)(F)C(F)(F)C(F)(F)C(F)(F)C(F)(F)C(F)(F)C(F)(F)C(F)F"
  discrete label: "n"
- given smiles: "O=C(O)C(F)(F)C(F)(F)C(F)(F)C(F)(F)C(F)(F)C(F)(F)C(F)F"
  discrete label: "n"
- given smiles: "CCOC(=O)CC(=O)C(F)(F)C(F)(F)F"
  discrete label: "n"

---

Molecular target: Estrogen receptor (Homo sapiens)
Assay: ATG_ERa_TRANS: Attagene TRANS-FACTORIAL HepG2 Assay for human Estrogen Receptor alpha (ERa) (AID 2282970)
Details: HepG2 Attagene TRANS ERa GAL4 reporter, mRNA
Results filed as inconclusive are left out. The source made the active and inactive calls. Rule for the calls: active = hit-call score of the fitted dose curve at least 0.9, where 1 is the maximum; inconclusive = response in the unintended direction; inactive = score below 0.9.
Outcome codes: active, inactive

- given smiles: "Oc1ccc(C2(c3ccc(O)c(C4CCCCC4)c3)CCCCC2)cc1C1CCCCC1"
  tested target: "Estrogen receptor (Homo sapiens)"
  discrete label: "inactive"
- given smiles: "Nc1cc([N+](=O)[O-])cc(Cl)c1O"
  tested target: "Estrogen receptor (Homo sapiens)"
  discrete label: "inactive"
- given smiles: "Cc1ccc(O)c(-n2nc3ccccc3n2)c1"
  tested target: "Estrogen receptor (Homo sapiens)"
  discrete label: "active"
- given smiles: "CCN(CC)c1ccc(C=O)c(O)c1"
  tested target: "Estrogen receptor (Homo sapiens)"
  discrete label: "inactive"
- given smiles: "C=C(C)C(=O)OCC(F)(F)C(F)(F)C(F)(F)C(F)F"
  tested target: "Estrogen receptor (Homo sapiens)"
  discrete label: "inactive"
- given smiles: "CCCCCCCCCCCCCC[P+](CCCC)(CCCC)CCCC"
  tested target: "Estrogen receptor (Homo sapiens)"
  discrete label: "inactive"
- given smiles: "CSc1ccc(O)cc1C"
  tested target: "Estrogen receptor (Homo sapiens)"
  discrete label: "active"

---

Read-out: Intercellular Adhesion Molecule 1 (ICAM1), ICAM1 (gene 3383)
Assay: BSK_KF3CT_ICAM1: BioMAP Diversity Plus: KF3CT Assay for Intercellular Adhesion Molecule 1 (ICAM1) Biomarker Activity (AID 2283067)
Conditions: primary human keratinocytes with fibroblasts; actives raise or lower the signal
Calls of active or inactive are those of the source. How the source made its calls: active means hit-call score of the fitted dose curve at least 0.9, where 1 is the maximum; inactive means score below 0.9.
Outcome codes: True for active, False for inactive

- given smiles: "FC(F)(F)C(F)(F)C(F)(F)C(F)(F)C(F)(F)C(F)(F)C(F)(F)CCI"
  discrete label: "False"
- given smiles: "C[C@]12CC[C@H]3C(=CCc4cc(O)ccc43)[C@@H]1CCC2=O"
  discrete label: "False"
- given smiles: "NS(=O)(=O)C(F)(F)C(F)(F)C(F)(F)C(F)(F)C(F)(F)C(F)(F)F"
  discrete label: "False"
- given smiles: "O=S(=O)(O)CCC(F)(F)C(F)(F)C(F)(F)C(F)(F)C(F)(F)C(F)(F)C(F)(F)C(F)(F)F"
  discrete label: "False"
- given smiles: "O=C(O)C(F)(F)C(F)(F)C(F)(F)C(F)(F)C(F)(F)C(F)(F)C(F)F"
  discrete label: "False"
- given smiles: "C[Si](Cl)(Cl)CCC(F)(F)C(F)(F)C(F)(F)C(F)(F)C(F)(F)C(F)(F)F"
  discrete label: "False"
- given smiles: "C=C(C)C(=O)OCC(F)(F)C(F)(F)C(F)(F)C(F)F"
  discrete label: "False"
- given smiles: "OCC(F)(F)C(F)(F)C(F)(F)C(F)(F)C(F)(F)C(F)(F)CO"
  discrete label: "False"
- given smiles: "CC(C)(C)c1cc(CCC(=O)NCCCCCCNC(=O)CCc2cc(C(C)(C)C)c(O)c(C(C)(C)C)c2)cc(C(C)(C)C)c1O"
  discrete label: "False"
- given smiles: "Cc1cc(O)c(C(C)(C)C)cc1C(C)(C)C"
  discrete label: "True"

---

Read-out: Vascular cell adhesion molecule 1 (VCAM1), VCAM1 (gene 7412)
Assay: BSK_CASM3C_VCAM1: BioMAP Diversity Plus: CASM3C Assay for Vascular cell adhesion molecule 1 (VCAM1) Biomarker Activity (AID 2283055);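 also: VCAM-1 protein level quantified by ELISA on the cells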
Settings: primary human coronary artery smooth muscle cells; actives raise or lower the signal
Activity calls are given as the source filed them. The calls were made as follows: active = hit-call score of the fitted dose curve at least 0.9, where 1 is the maximum; inactive = score below 0.9.
Outcome codes: T = active, F = inactive

- compound: "CCN(CC)c1ccc(C=O)c(O)c1"
  discrete label: "F"
- compound: "NS(=O)(=O)C(F)(F)C(F)(F)C(F)(F)C(F)(F)C(F)(F)C(F)(F)F"
  discrete label: "F"
- compound: "O=S(=O)(O)CCC(F)(F)C(F)(F)C(F)(F)C(F)(F)F"
  discrete label: "F"
- compound: "O=C=Nc1cccc2c(N=C=O)cccc12"
  discrete label: "F"
- compound: "FC(F)(F)C(F)(F)C(F)(F)CC1CO1 (configuration not stated)"
  discrete label: "F"
- compound: "CC(C)CCCC(C)CCO (configuration not stated)"
  discrete label: "T"
- compound: "O=C(O)CCC(F)(F)C(F)(F)C(F)(F)F"
  discrete label: "F"
- compound: "Brc1nc2ccccc2s1"
  discrete label: "F"
- compound: "O=C1c2c(O)ccc(Nc3ccc(CCO)cc3)c2C(=O)c2c([N+](=O)[O-])ccc(O)c21"
  discrete label: "F"
- compound: "OCC(F)(F)C(F)(F)C(F)(F)CO"
  discrete label: "F"
- compound: "FC(F)(F)C(F)(F)C(F)(F)C(F)(F)C(F)(F)C(F)(F)CC[Si](Cl)(Cl)Cl"
  discrete label: "F"
- compound: "Cc1ccc(O)c(-n2nc3ccccc3n2)c1"
  discrete label: "F"
